Task for the reader: assign each of the following variants its reported protein stability index.
B1: ATE1 (parent)
chain: DYFPSEDFYRCGYCKNESGSRSNG

Variants of: B1
TEST_SUMMARY: protein stability index of a GFP-peptide fusion (GPS, HEK-293T) (PSI 1-6); higher = more stable;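 also: lentivirally expressed fusions sorted by FACS into six bins by GFP to DsRed ratio, PSI derived from sequencing read proportions per bin multiplied by bin number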
APPLIED_CONDITIONS: c terminus: a fixed tail appended

// for each variant in input: emit protein stability index
1. K15E
2. P4Q
3. G12I
4. Y2T
5. S22V
6. Y13W
7. F3R
8. E17R

Found:
1. 2.46
2. 2.77
3. 2.84
4. 2.63
5. 2.12
6. 3.73
7. 2.58
8. 2.78

// for each variant in input: emit protein stability index
1. Y9Q
2. S18C
3. E6D
4. N23C
5. S20H
6. S5M

Found:
2.14
1.08
1.92
1.28
2.1
1.42

// for each variant in input: emit protein stability index
1. R21W
2. C11Q
3. P4K
4. C11W
5. K15R

Found:
2.03
4.36
1.92
4.12
1.17
